- System: HCC-2998 colon
- assay comment: NCI-60 one-dose screen, 48 h
- condition description: 10 µM
This is part of a sample that, as a whole, favours compounds with a hit. Of some 83,000 tested, about 20% had one in any assay. Active and inactive are the calls of the source. Rule for the calls: active = growth percent below 10; inactive = the rest.
Field 'call' accepts active, inactive

### Prompt Returns: the outcome recorded for O=c1c2ccccc2nc(COc2ccccc2)n1/N=C/c1ccc(F)cc1 in this assay.
### Response inactive

### Prompt Try the compound CC(C)NC(=O)c1cc(-c2ccc(NC(=O)Nc3ccc(N4CCN(C)CC4)c(C(F)(F)F)c3)cc2)nc2cccnc12
### Response active

---
### Prompt Returns: the outcome recorded for C#Cc1ccc(S(=O)(=O)Nc2cccc(-c3csc(NC(C)=O)n3)c2)cc1 in this assay.
### Response inactive

### Prompt Try the compound COc1ccc(-c2ccc(/C=N/NC(=O)c3[nH]c4ccc(Br)cc4c3-c3ccccc3)o2)cc1
### Response inactive

### Prompt Try the compound O=C(Nc1ccc(I)cc1F)c1cc(-c2ccc(F)cc2F)ccc1O
### Response active

* * *

- System: NCI/ADR-RES ovarian
- assay comment: NCI-60 one-dose screen, 48 h (100 = growth as untreated, 0 = no growth, -100 = all killed)
- condition description: 10 µM
- Procedure: Growth inhibition of the NCI/ADR-RES human […] tumor cell line is measured as a screen for anti-cancer activity. Cells are grown in 96 well plates and exposed to the test compound for 48 hours. Compounds are tested at a single concentration, which is 10^-5 M for most compounds. The reported endpoint is percent growth (GI% or GIPRCNT), where numbers from 0 - 100% represent growth inhibition, and numbers from -100% - 0 represent cell death. For example, a value of 40 represents 60% growth inhibition. […]
This is part of a sample that, as a whole, favours compounds with a hit. Of some 83,000 tested, about 20% had one in any assay.
This listing pairs compounds with measured growth.
Give just the numeric value; % need not be written.

### Prompt Using the record for O=C1Nc2cc(Cl)ccc2/C1=C/c1cccc(OCc2ccccc2)c1 , report its growth.
### Response -22.2

### Prompt Try the compound O=C(NC(=S)N1CCN(c2ncnc3c2cnn3-c2ccccc2)CC1)c1ccc(Cl)cc1
### Response 28.1

### Prompt Try the compound COc1ccc(-c2nc(S(=O)(=O)c3ccc(C)cc3)c(S(=O)(=O)CC(=O)N(C)Cc3ccccc3)o2)cc1
### Response 28.8

### Prompt Try the compound Cc1noc2c(Cc3ccccc3)nn(CC(=O)N/N=C/c3ccc(Cl)cc3)c(=O)c12
### Response 53.2

---
### Prompt Using the record for COc1ccc([C@H]2C(C(=O)c3ccc(Cl)cc3)C3(N[C@@H]2c2ccccc2)C(=O)Nc2ccc(Cl)cc23)cc1 (stereo partly drawn) , report its growth.
### Response -47.1

### Prompt Try the compound CC1(C)CC[C@]2(C(=O)O)CC[C@]3(C)C(=CC[C@@H]4[C@@]5(C)C/C(=C/c6ccncc6)[C@H](O)C(C)(C)[C@@H]5CC[C@]43C)[C@@H]2C1
### Response 32.7

### Prompt Try the compound CC1(c2ccccc2)NC(=O)N(CC(=O)Nc2ccc(C(=O)/C=C/C=C/c3ccccc3)cc2)C1=O (stereo not drawn)
### Response 82.7

### Prompt Try the compound CSc1nc(-c2cccc(C)c2)c2cc(-c3ccccc3)n(C)c2n1
### Response -19.6

* * *

- Tested on: CAKI-1 renal
- assay comment: NCI-60 one-dose screen, 48 h
- condition description: 10 µM
About 83,000 compounds went through this panel and 20% of them were active in at least one assay; those are over-represented in the sample as a whole. Calls of active or inactive are those of the source. How the source made its calls: active means growth percent below 10; inactive means the rest.
Field 'call' accepts yes for active, no for inactive

Worked examples, 6 molecules total:
### Prompt Returns: the outcome recorded for COc1cc(/C=C/C(=O)c2ccc(C(F)(F)F)cc2)ccc1Oc1nc(Nc2ccc(F)cc2)nc(N(C)C)n1 in this assay.
### Response no

### Prompt Try the molecule CCCCSc1nc(Nc2ccc(/C(C)=N/NC(N)=S)cc2)c(C#N)c(-c2ccc(OC)cc2)n1
### Response no

### Prompt Try the molecule CC(C)C1=C[C@@]23CC[C@@H]4[C@](C)(CCC[C@]4(C)C(=O)NCc4ccccc4)[C@H]2C[C@@H]1[C@H]1C(=O)CCC(=O)[C@H]13
### Response no

### Prompt Try the molecule OCc1[nH]nc2cc(Nc3ncc4ccc(Br)c(OC5CCC(O)CC5)c4n3)ccc12 (stereo not drawn)
### Response yes

### Prompt Try the molecule C=C1CCC2C3(C)COC(c4c(F)cccc4F)OC3CCC2(C)C1C/C=C1/C(=O)OCC1O (stereo not drawn)
### Response yes

### Prompt Try the molecule CN1C(=O)/C(=C/c2ccc3ncsc3c2)NC1=NC12CC3CC(CC(O)(C3)C1)C2
### Response yes

---
### Prompt Returns: the outcome recorded for CN1CCN(Cc2ccc(NC(=O)c3cncc(C#Cc4cnc5ccc(N[C@@H]6CCOC6)nn45)c3)cc2C(F)(F)F)CC1 in this assay.
### Response yes

### Prompt Try the molecule Brc1ccc(N/N=C/c2c[nH]c3ccccc23)nc1
### Response no

### Prompt Try the molecule O=C1N/C(=N\c2nccs2)S/C1=C\c1cccs1
### Response no

* * *

- Tested on: SN12C renal
- assay comment: NCI-60 one-dose screen, 48 h (100 = growth as untreated, 0 = no growth, -100 = all killed)
- condition description: 10 µM
This is part of a sample that, as a whole, favours compounds with a hit. Of some 83,000 tested, about 20% had one in any assay. Active and inactive are the calls of the source. How the source made its calls: active means growth percent below 10; inactive means the rest.
attribute measured: growth

### Prompt Using the record for Cc1cc(=O)oc2cc(OCCCCOc3ccc(/C=C/C(=O)Nc4ccccc4[N+](=O)[O-])cc3)ccc12 , report its growth.
### Response 100% (inactive)

### Prompt Try the compound Cc1ccc(C(C)C)cc1NC(=O)c1ccccc1N(C)C
### Response 88.1% (inactive)

### Prompt Try the compound COc1ccc2nc(Cl)c(-c3cc(-c4ccccc4)nc(=S)[nH]3)cc2c1
### Response 75.6% (inactive)

### Prompt Try the compound O=C(Cn1nc(-c2ccccc2)ccc1=O)NN1C(=O)c2ccccc2C1=O
### Response 123% (inactive)

* * *

- Test system: HOP-62 NSCLC
- assay comment: NCI-60 one-dose screen, 48 h (100 = growth as untreated, 0 = no growth, -100 = all killed)
- condition description: 10 µM
- Protocol: Growth inhibition of the HOP-62 human Non-Small Cell Lung tumor cell line is measured as a screen for anti-cancer activity. Cells are grown in 96 well plates and exposed to the test compound for 48 hours. Compounds are tested at a single concentration, which is 10^-5 M for most compounds. The reported endpoint is percent growth (GI% or GIPRCNT), where numbers from 0 - 100% represent growth inhibition, and numbers from -100% - 0 represent cell death. […]
Compounds without any hit were thinned out: in the full panel of roughly 83,000, 20% have a hit.
Lab note: compare growth with 30%, writing fulfilled if less and not fulfilled if equal or more.

Worked examples, 2 compounds total:
### Prompt Please indicate whether the reported growth of CCCn1c(=O)c2[nH]c(-c3ccc(OCc4nc5ccc(C#N)cc5[nH]4)cc3)nc2n(CCC)c1=O is strictly below 30%.
### Response not fulfilled

### Prompt Try the compound N#Cc1c(NC(=O)c2ccc(C(F)(F)F)c(Cl)c2)sc2c1CCC(=O)C2
### Response fulfilled

---
### Prompt Please indicate whether the reported growth of O=C(c1ccc(Cl)cc1)C1[C@H](c2ccc(Br)cc2)[C@@H](c2ccccc2)NC12C(=O)Nc1ccc(Cl)cc12 (some centres not stated) is strictly below 30%.
### Response fulfilled

### Prompt Try the compound Cc1cc2nc3c4ccccc4n(CCO)c3nc2cc1C
### Response not fulfilled

### Prompt Try the compound O=C(Nc1ccc(OCC(=O)c2ccccc2)cc1)Nc1ccc(Cl)c(C(F)(F)F)c1
### Response fulfilled

### Prompt Try the compound O=C(NO)c1ccc(Cn2ccc3c(NCc4ccccc4)ncnc32)cc1
### Response fulfilled

### Prompt Try the compound O=C(CNc1nc(-c2ccccc2)cs1)Nc1ccc([N+](=O)[O-])cc1Cl
### Response not fulfilled

### Prompt Try the compound COc1ccc(C(=O)NC(=S)N2CCN(c3ncnc4c3cnn4-c3ccccc3)CC2)cc1
### Response not fulfilled

### Prompt Try the compound CN1CCCN(Cc2ccc(C(=O)Nc3cccc(Nc4ccc5c(O)cccc5n4)c3)cc2C(F)(F)F)CC1
### Response fulfilled

### Prompt Try the compound CC(=O)c1ccc(NC(=O)NCn2c(=O)[nH]c3ccccc3c2=O)cc1
### Response not fulfilled

### Prompt Try the compound Brc1ccc(/C=C/c2n(Cc3ccc4ccccc4c3)c3ccccc3[n+]2Cc2ccc3ccccc3c2)cc1
### Response fulfilled

### Prompt Try the compound CN(C)c1cccc2c(S(=O)(=O)Nc3cccc(-c4csc(NC(=O)CCCCCN5CCN(c6cc7c(cc6F)C(=O)N(C6CCC(=O)NC6=O)C7=O)CC5)n4)c3)cccc12 (configuration not stated)
### Response not fulfilled

### Prompt Try the compound Cc1noc2c(Cc3ccccc3)nn(CC(=O)N/N=C/c3ccc(Br)cc3)c(=O)c12
### Response not fulfilled

### Prompt Try the compound O=c1[nH]c2ccccc2cc1CSc1ccc(Nc2nccc(-c3ccc4ccccc4c3)n2)cc1
### Response not fulfilled

### Prompt Try the compound C=C[C@H]1[C@H](O[C@@H]2OC(CO)[C@@H](O)[C@H](O)C2OC(=O)c2c(O)cc(O)cc2-c2cccc(O)c2)OC=C2C(=O)OCC[C@H]21 (some centres not stated)
### Response not fulfilled

### Prompt Try the compound CCOC(=O)CNC(=O)CN(Cc1ccccc1)C(=O)[C@@]1(C)CCC[C@]2(C)[C@H]3C[C@H]4C(C(C)C)=C[C@]3(CC[C@H]21)[C@@H]1C(=O)OC(=O)[C@@H]14
### Response not fulfilled

### Prompt Try the compound O=C(/C=C/Nc1ccccc1)c1ccc2c(c1)Nc1ccccc1S2
### Response not fulfilled
